Entry source: patent US20250019437A1

- Tested On: T1, human TREM2 (triggering receptor expressed on myeloid cells 2) (human) (UniProt Q9NZC2)
- T1 sequence (looked up): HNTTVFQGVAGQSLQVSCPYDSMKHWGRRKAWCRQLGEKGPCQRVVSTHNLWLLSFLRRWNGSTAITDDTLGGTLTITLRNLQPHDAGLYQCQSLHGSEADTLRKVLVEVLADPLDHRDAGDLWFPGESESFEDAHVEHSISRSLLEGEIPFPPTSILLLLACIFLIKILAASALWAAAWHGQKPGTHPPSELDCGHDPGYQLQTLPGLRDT
- Protocol: 2nd screen, 2 nM Ab
Quantity Measured: Binding Signal (fold over 6E7 parental antibody) (fold)
Answers are plain numbers, in fold.

Examples with their reported Binding Signal (fold over 6E7 parental antibody) follow.
Kindly note the recorded Binding Signal (fold over 6E7 parental antibody) for 6E7 antibody affinity modulation variant V24 (antibody, V domains shown) VH: EVQLVQSGAEVKKPGESLKISCKGSGYSFTSYWIAWVRQMPGKGLEWMGIIYPGDSDVRYSPSFQGQVTISADKSISTAYLQWSSLKASDTAMYFCARSRTFYYDSSDYFDYWGQGTLVTVSS VL: DIQMTQSPSSVSASVGDRVTITCRASQGISSWLAWYQQKPGKAPKLLIYAASSLQKGVPSRFSGSGSGTDFTLTISSLQPEDFATYFCQQADSFPHTFGQGTKLEIK , which is 1.42

Kindly note the recorded Binding Signal (fold over 6E7 parental antibody) for 6E7 antibody affinity modulation variant V27 (antibody, V domains shown) VH: EVQLVQSGAEVKKPGESLKISCKGSGYSFTSYWIAWVRQMPGKGLEWMGIIYPGDSDTRYAPSFQGQVTISADKSISTAYLQWSSLKASDTAMYFCVRSRTFYYDSSDYFDYWGQGTLVTVSS VL: DIQMTQSPSSVSASVGDRVTITCRASQGISSWLAWYQQKPGKAPKLLIYAASSLQRGVPSRFSGSGSGTDFTLTISSLQPEDFATYFCQQADSFPRTFGQGTKLEIK , which is 5.67

Field: next binder
Kindly note the recorded Binding Signal (fold over 6E7 parental antibody) for 6E7 antibody affinity modulation variant V84 (antibody, V domains shown) VH: EVQLVQSGAEVKKPGESLKISCKGSGYGFTSYWIAWVRQMPGKGLEWMGIIYPGDSDTRYSPSFQGQVTISADKSISTAYLQWSSLKASDTAMYFCARQRTFYYDSSDYSDYWGQGTLVTVSS VL: DIQMTQSPSSVSASVGDRVTITCRASQGISSWLAWYQQKPGKAPKLLIYGASSLQNGVPSRFSGSGSGTDFTLTISSLQPEDFATYFCQQADSFPRTFGQGTKLEIK , which is 1.45
